biological target: Tyrosine-protein kinase Srms (Homo sapiens) (UniProt Q9H3Y6); settings: at 1 µM
Sequence (Q9H3Y6 whole entry): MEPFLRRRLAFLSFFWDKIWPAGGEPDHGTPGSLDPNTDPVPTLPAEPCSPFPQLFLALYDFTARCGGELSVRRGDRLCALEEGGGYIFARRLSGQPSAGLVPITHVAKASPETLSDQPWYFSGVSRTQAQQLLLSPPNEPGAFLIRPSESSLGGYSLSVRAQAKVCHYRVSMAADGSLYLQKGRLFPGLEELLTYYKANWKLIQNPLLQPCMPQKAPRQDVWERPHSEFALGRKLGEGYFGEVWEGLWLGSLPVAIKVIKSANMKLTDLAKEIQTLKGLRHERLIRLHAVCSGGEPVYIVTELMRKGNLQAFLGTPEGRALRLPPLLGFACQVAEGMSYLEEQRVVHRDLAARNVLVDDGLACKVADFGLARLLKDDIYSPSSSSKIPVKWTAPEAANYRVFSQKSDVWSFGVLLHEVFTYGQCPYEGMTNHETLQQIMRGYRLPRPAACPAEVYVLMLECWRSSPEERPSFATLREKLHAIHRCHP
Description: GSK_PKIS: SRMS mean inhibition at 1 uM [Nanosyn]
experimental_readout: inhibition (%)
Please reply with the bare figure in % and do not write the unit itself.

Some entries whose results are on file:
> print(dat)
                                test.smiles  quantity.unit  number
1  COc1ccc(-c2nn3ncccc3c2-c2ccnc(Nc3ccc(F)c(F)c3)n2)cc1              %    1.37
2  Cc1c2ccc(N(C)c3ccnc(Nc4cccc(S(N)(=O)=O)c4)n3)cc2nn1C              %    17.6
3  COc1ccccc1-c1cc(/C=C2\C(=O)Nc3ncc(Br)cc32)cc(Br)c1O              %    14.7
4  O=C(O[C@H]1CN[C@H](C#Cc2cc3ncnc(Nc4ccc5c(cnn5Cc5ccccc5)c4)c3s2)C1)N1CCOCC1              %    2.01

From here, focus on the item given below.
Need inhibition, item `CS(=O)(=O)CCNCc1ccc(-c2ccc3ncnc(Nc4ccc(OCc5cccc(C(F)(F)F)c5)cc4)c3c2)o1`
-3.22

====

target: Serine/threonine-protein kinase Chk2 (Homo sapiens) (UniProt O96017); conditions: at 0.1 µM
Sequence (O96017 whole entry): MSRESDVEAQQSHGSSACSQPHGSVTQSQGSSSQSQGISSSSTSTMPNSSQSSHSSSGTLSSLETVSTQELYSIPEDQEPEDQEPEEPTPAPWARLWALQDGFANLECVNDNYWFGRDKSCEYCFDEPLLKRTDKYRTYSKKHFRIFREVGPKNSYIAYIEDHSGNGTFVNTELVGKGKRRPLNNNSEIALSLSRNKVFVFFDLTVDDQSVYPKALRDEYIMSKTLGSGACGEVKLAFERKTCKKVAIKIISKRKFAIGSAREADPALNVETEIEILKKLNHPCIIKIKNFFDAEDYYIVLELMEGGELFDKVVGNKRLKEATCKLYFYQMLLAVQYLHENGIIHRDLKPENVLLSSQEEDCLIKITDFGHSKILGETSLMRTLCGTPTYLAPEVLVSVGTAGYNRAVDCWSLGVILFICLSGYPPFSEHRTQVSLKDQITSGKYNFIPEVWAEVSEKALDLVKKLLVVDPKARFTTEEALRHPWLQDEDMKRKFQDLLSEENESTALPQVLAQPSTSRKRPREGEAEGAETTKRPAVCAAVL
Description: GSK_PKIS: CHEK2 mean inhibition at 0.1 uM [Nanosyn]
Measured inhibition by item
Answer with the number, then the unit.

Some entries whose results are on file:
> print(dat)
                                test.smiles  result
1  CS(=O)(=O)CCNCc1ccoc1-c1ccc2ncnc(Nc3ccc(OCc4ccccc4)cc3)c2c1   1.56%
2  CN1CCC(n2cnc(-c3ccc(F)cc3)c2-c2ccnc(NCCO)n2)CC1    4.1%
3  NS(=O)(=O)c1ccc(N/N=C2\C(=O)Nc3ccc(C(=O)NCc4ccncc4)cc32)cc1   4.18%
4  O=C(O[C@H]1CN[C@H](C#Cc2cc3ncnc(Nc4ccc5c(cnn5Cc5ccccc5)c4)c3s2)C1)N1CCOCC1  -1.25%
5  COc1cc2c(cc1Nc1nc(Nc3cccc(F)c3C(N)=O)c3cc[nH]c3n1)N(C(=O)CN1CCN(C(C)C)CC1)CC2   6.05%

From here, focus on the item given below.
Need inhibition, item `O=C1Nc2ccccc2/C1=C1\CCc2cc(O)ccc21`
1.37%

====

Measured inhibition by item
tested on: Tyrosine-protein kinase ABL1 (Homo sapiens), P00519 [Y253F]; details: at 1 µM
Please reply with the bare figure in % and do not write the unit itself.

> print(dat)
                                test.smiles  number
1  N#Cc1ccc2c(-c3ccnc(NC4CC4)n3)c(-c3ccc(F)cc3)nn2c1    3.58
2  COc1cc(N2CCN(C(C)C)CC2)ccc1Nc1nc(Nc2cccc3ncccc23)c2cc[nH]c2n1    2.91
3  CCN1CCC(C(=O)Nc2n[nH]c3nnc(-c4cccc(F)c4F)cc23)CC1   -1.38

Need inhibition, item `CS(=O)(=O)CCNCc1ccc(-c2ccc3ncnc(Nc4ccc(OCc5ccccc5)cc4)c3c2)o1`
4.13

Similarly, `Fc1cccc(COc2ccc(Nc3ncncc3C#Cc3ccccc3)cc2Cl)c1` ?
4.69

Similarly, `COc1c(C(N)=O)cc(-c2ccc(Cl)cc2)cc1-c1ccc(S(N)(=O)=O)cc1` ?
4.61

Similarly, `Fc1ccc(Nc2nccc(-c3c(-c4ccc(C(F)(F)F)cc4)nn4ncccc34)n2)cc1F` ?
2.19

Similarly, `COc1cc(Nc2ncc(-c3ccccc3)o2)cc(OC)c1` ?
50.9

Similarly, `CS(=O)(=O)Nc1ccc(-c2cc(-c3ccccc3)cc(C(N)=O)c2N)cc1` ?
2.93

Similarly, `Cc1cc(O)cc(C)c1/C=C/c1cncc(C(=O)OC(C)(C)C)c1` ?
38.4

====

Measured inhibition by item
tested on: Tyrosine-protein kinase ABL1 (Homo sapiens), P00519 [T315I]; settings: at 0.1 µM
Please reply with the bare figure in % and do not write the unit itself.

> print(dat)
                                   compound                       experimental.target  experimental.readout  quantity.unit  number
1  CCS(=O)(=O)c1ccc(OC)c(Nc2ncc(-c3cccc(C(C)=O)c3)o2)c1  Tyrosine-protein kinase ABL1 (Homo sapiens), P00519 [T315I]            inhibition              %    2.67
2  CCS(=O)(=O)c1ccc(OC)c(Nc2ncc(-c3cccc(F)c3)o2)c1  Tyrosine-protein kinase ABL1 (Homo sapiens), P00519 [T315I]            inhibition              %    4.78
3  OCCCNc1nccc(-c2c(-c3ccc(F)cc3)nn3cc(C(F)(F)F)ccc23)n1  Tyrosine-protein kinase ABL1 (Homo sapiens), P00519 [T315I]            inhibition              %     1.5
4  CS(=O)(=O)CCNCc1ccc(-c2ccc3ncnc(Nc4ccc(OCc5cccc(C(F)(F)F)c5)cc4)c3c2)o1  Tyrosine-protein kinase ABL1 (Homo sapiens), P00519 [T315I]            inhibition              %    1.82
5  CC1=C(C(=O)Nc2ccc3[nH]nc(C)c3c2)C(c2ccc(C(F)(F)F)cc2)CC(=O)N1 (centres undefined)  Tyrosine-protein kinase ABL1 (Homo sapiens), P00519 [T315I]            inhibition              %    3.82
6  CNC(=O)c1ncccc1Nc1nc(Nc2cc3c(cc2OC)CCCN3C(=O)CN(C)C)nc2[nH]ccc12  Tyrosine-protein kinase ABL1 (Homo sapiens), P00519 [T315I]            inhibition              %    3.72
7  COc1cc2c(cc1Nc1nc(Nc3cccc(F)c3C(N)=O)c3cc[nH]c3n1)N(C(=O)CN1CCN(C(C)C)CC1)CC2  Tyrosine-protein kinase ABL1 (Homo sapiens), P00519 [T315I]            inhibition              %   -0.82
8  CN(C)CCNC(=O)Nc1ccc(N(C)c2ccnc(Nc3ccc(CS(C)(=O)=O)cc3)n2)cc1  Tyrosine-protein kinase ABL1 (Homo sapiens), P00519 [T315I]            inhibition              %    4.39

From here, focus on the item given below.
Need inhibition, item `Fc1cccc(COc2ccc(Nc3ncncc3C#Cc3ccccc3)cc2Cl)c1`
4.11

====

Biological target: Serine/threonine-protein kinase 4 (Homo sapiens) (UniProt Q13043);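 note: mean inhibition of MST1, reported as part of the GSK PKIS dataset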
Sequence (whole entry): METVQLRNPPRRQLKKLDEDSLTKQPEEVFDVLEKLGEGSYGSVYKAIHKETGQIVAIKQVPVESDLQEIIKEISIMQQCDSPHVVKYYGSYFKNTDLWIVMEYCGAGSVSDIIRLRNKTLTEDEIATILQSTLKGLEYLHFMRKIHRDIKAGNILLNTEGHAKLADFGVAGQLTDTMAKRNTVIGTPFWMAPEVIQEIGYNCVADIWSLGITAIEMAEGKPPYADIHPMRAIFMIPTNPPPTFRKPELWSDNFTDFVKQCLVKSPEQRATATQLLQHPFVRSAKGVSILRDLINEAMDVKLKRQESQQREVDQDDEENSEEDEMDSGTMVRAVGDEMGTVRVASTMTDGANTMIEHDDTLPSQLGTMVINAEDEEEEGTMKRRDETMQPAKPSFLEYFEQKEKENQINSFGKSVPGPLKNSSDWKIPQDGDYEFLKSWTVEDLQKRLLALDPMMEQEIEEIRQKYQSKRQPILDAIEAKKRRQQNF
Settings: at 0.1 µM
experimental_readout: inhibition (%)
Please reply with the bare figure in % and do not write the unit itself.

Some entries whose results are on file:
> print(dat)
                                test.smiles  experimental.readout  quantity.unit  number
1  CS(=O)(=O)Nc1ccc(-c2cc(-c3ccccc3)cc(C(N)=O)c2N)cc1            inhibition              %    0.24
2        O=C1Nc2ccccc2/C1=C1\CCc2cc(O)ccc21            inhibition              %    20.8

From here, focus on the item given below.
Tell me reported inhibition for `COc1cccc(-n2ncc3c(N/N=C/c4ccc(C(=O)NCCN(C)C)cc4)ncnc32)c1` , tested with Serine/threonine-protein kinase 4 (Homo sapiens) (UniProt Q13043).
4.6

====

Measured inhibition by item
target: Homeodomain-interacting protein kinase 4 (Homo sapiens) (UniProt Q8NE63); conditions: at 0.1 µM;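 note: reported as mean inhibition, part of the GSK PKIS dataset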
Sequence (Q8NE63 whole entry): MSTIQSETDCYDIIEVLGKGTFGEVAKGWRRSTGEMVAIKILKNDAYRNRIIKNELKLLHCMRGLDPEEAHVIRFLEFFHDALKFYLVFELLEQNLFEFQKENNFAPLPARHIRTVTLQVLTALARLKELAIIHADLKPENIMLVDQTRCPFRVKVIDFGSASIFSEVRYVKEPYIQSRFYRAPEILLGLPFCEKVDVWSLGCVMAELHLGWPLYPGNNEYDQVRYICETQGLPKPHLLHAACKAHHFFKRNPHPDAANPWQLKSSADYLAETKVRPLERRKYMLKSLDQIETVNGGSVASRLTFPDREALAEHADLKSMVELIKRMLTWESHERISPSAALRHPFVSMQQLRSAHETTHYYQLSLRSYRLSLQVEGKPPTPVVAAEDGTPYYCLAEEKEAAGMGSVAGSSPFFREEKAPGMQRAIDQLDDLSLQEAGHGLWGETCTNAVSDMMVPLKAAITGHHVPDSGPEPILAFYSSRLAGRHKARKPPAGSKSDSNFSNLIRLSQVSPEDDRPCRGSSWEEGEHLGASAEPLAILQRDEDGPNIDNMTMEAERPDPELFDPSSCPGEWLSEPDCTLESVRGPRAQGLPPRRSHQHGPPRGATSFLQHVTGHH
Please reply with the bare figure in % and do not write the unit itself.

> print(dat)
                                   compound  experimental.readout  number
1  COc1cc(N2CCN(C(C)C)CC2)ccc1Nc1nc(Nc2cccc(F)c2C(=O)O)c2cc[nH]c2n1            inhibition    5.89
2      Cc1cc(O)cc(C)c1/C=C/c1cncc(C(N)=O)c1            inhibition    0.22
3  CS(=O)(=O)CCNCc1ccc(-c2ccc3ncnc(Nc4ccc(OCc5ccccc5)cc4)c3c2)o1            inhibition     0.8
4  COC(=O)Nc1nc2ccc(Oc3ccc(NC(=O)Nc4cc(C(F)(F)F)ccc4F)cc3)cc2s1            inhibition    6.92
5        O=C1Nc2ccccc2/C1=C1\CCc2cc(O)ccc21            inhibition    0.76

Need inhibition, item `N#Cc1ccc2c(-c3ccnc(NC4CC4)n3)c(-c3ccc(F)cc3)nn2c1`
-0.93

Similarly, `Fc1ccc(Nc2nccc(-c3c(-c4ccc(C(F)(F)F)cc4)nn4ncccc34)n2)cc1F` ?
0.47

Similarly, CC1=C(C(=O)Nc2ccc3[nH]nc(C)c3c2)C(c2ccc(C(F)(F)F)cc2)CC(=O)N1 (stereo unspecified) ?
3.59

Similarly, `O=C(O[C@H]1CN[C@H](C#Cc2cc3ncnc(Nc4ccc5c(ccn5Cc5cc(F)ccc5F)c4)c3s2)C1)N1CCOCC1` ?
0.47

Similarly, `O=C(O[C@H]1CN[C@H](C#Cc2cc3ncnc(Nc4ccc(OCc5cccc(F)c5)c(Cl)c4)c3s2)C1)N1CCOCC1` ?
2.71
